assay-target: Ecm16* (Streptomyces lasalocidi (insertion domain from Streptomyces peucetius DrrC)) (UniProt Q0X0A9)
assay: fluorescence polarization
settings: no echinomycin, apparent KD, Hill fit, FP: 50 mM HEPES pH 7.5, 50 mM NaCl, 50 nM DNA, 4-512 nM protein, temperature not stated, EMSA: same buffer plus 0.1 mg/ml BSA
measured-property: Kd

- polymer-sequence: "AGTGATCAGTGGTTACGTAACCACTGATCACT (double strand) [FAM 32-bp DNA]"
  result: "90.8 nM"
